In this section we review reported %Inh values for a set of molecules.
Tested on: JAK1(JH1domain-catalytic);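 also: KINOMEscan kinase panel screen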
statedConditions: concentration: 1 μM, replicates: in singlicate; n = 1
Kindly answer with a numeric value in %, unit omitted.

Reference set (8 entries):
Per the record, Cn1ccc2ncnc(Oc3ccc(NC(=O)Nc4ccncc4)c(Cl)c3)c21 has %Inh of 14

The molecule listed as CSc1ccc(-c2cc3ncnc(SCC(=O)O)c3s2)cc1 has a reported %Inh of 1

For record COc1cc(Nc2nccc(N3CCC(NC(=O)c4cccc(NC(C)=O)c4)C3)n2)cc(OC)c1OC (stereo not shown) [GSK1379754] the listed %Inh is 7

# %Inh (molecule: O=C1NC(=O)C(N2CCc3ccccc32)=C1c1cccc(Cl)c1 [SB-408010] ) is 14

// recorded %Inh for CN1c2ccc(CNc3ccc(F)cc3)cc2-c2c(cnn2C)S1(=O)=O : 2

response.value for Cl.Oc1cccc(Nc2ccnc3cc(-c4ccncc4)ccc23)c1 [GW494601] (field: %Inh) = 65

Recorded result, Nc1nccc(-c2c(-c3ccc(F)cc3)ncn2C2CCN(CC(F)(F)F)CC2)n1 [SB-236560] , %Inh: 0

Measured %Inh of CN1c2ccc(NCc3ccc(F)cc3)cc2-c2c(cnn2C)S1(=O)=O : 0

Next:
The reported %Inh of the molecule COc1cc2c(cc1OCCN1CCN(C)CC1)ncc1c3ccc(C#N)cc3[nH]c21 was 0

Record summary for CCc1nc(-c2cccc(C)c2)c(-c2ccnc(NCc3ccccc3)c2)s1 : reported %Inh = 7

So, c1ccc(-c2n[nH]cc2-c2ccnc3ccccc23)nc1 [GW271431] ? Its %Inh was 10

Entry under test: O=c1cc(N2CCOCC2)nc2n(Cc3cccc(C(F)(F)F)c3)ccn12 [GSK2297543] . Its %Inh was 2

Per the record, O=c1cc(N2CCOCC2)nc2n(Cc3cccc4ccccc34)ccn12 [GSK2333389] has %Inh of 7

What the record says about O=c1cc(N2CCOCC2)nc2n(Cc3cccc(F)c3)ccn12 [GSK2297430] : %Inh is 8

%Inh in this record for COCCNC(=O)c1ccc(-c2cc(C(=O)NC3CC3)cc(F)c2C)cc1 [GW868318] : 0

// sample O=C(Nc1cccc(-c2nn3ncccc3c2-c2ccnc(Nc3cccc(C(F)(F)F)c3)n2)c1)c1c(F)cccc1F [GSK299495] , its %Inh was 22

Data credit: paper PMC5540273
